molecular target: mutant MGL (Homo sapiens, UniProt Q99685, L169S/L176S); construct: purified mutant MGL (mut-MGLL 11-313 L179S L186S); test: MGL ThermoFluor assay - mutant; conditions: qNMR-corrected compound concentration; read-out: MGL mutant ThermoFluor qKd
pKd: −log10 of the molar value.
measured parameter: pKd

[A] O=C(c1nccs1)N1CC[C@H](NC2CN(C(=O)c3cccc4c3ccn4-c3ccc(F)cc3)C2)C1 [Cpd 214]
[B] Cn1cc(-c2cccc(F)c2)c2ccc(C(=O)N3CC(N[C@H]4CCN(C(=O)c5cscn5)C4)C3)cc21 [Cpd 206]
Query: Which numeric pKd is bigger, that of A or that of B ? Indicate your choice by writing its label.
Result: B

[a] O=C(c1ccc2c(ccn2CC(F)F)c1)N1CC(N[C@H]2CCN(C(=O)c3nccs3)C2)C1 [Cpd 213]
[b] O=C(c1ccc2c(-c3cccc(F)c3)c[nH]c2c1)N1CC(N[C@H]2CCN(C(=O)c3nccs3)C2)C1 [Cpd 202]
Query: Which numeric pKd is bigger, that of a or that of b ? Indicate your choice by writing its label.
Result: b
(b: 7.25, a: 6.02)

[1] O=C(c1nccs1)N1CC[C@H](NC2CN(C(=O)c3cc4ccn(-c5ccc(F)cc5)c4cc3Cl)C2)C1 [Cpd 225]
[2] O=C(c1cscn1)N1CC[C@H](NC2CN(C(=O)c3cccc4c3CCN4c3ccc(F)cc3)C2)C1 [Cpd 217]
Query: Which numeric pKd is bigger, that of 1 or that of 2 ? Indicate your choice by writing its label.
Result: 1

[1] O=C(c1cscn1)N1CC[C@H](NC2CN(C(=O)c3cccc4c3ccn4-c3ccc(F)cc3)C2)C1 [Cpd 215]
[2] O=C(c1ccc2c(-c3cccc(F)c3)c[nH]c2c1)N1CC(N[C@H]2CCN(C(=O)c3cscn3)C2)C1 [Cpd 203]
[3] Cn1cc(Cc2ccc(F)cc2)c2ccc(C(=O)N3CC(N[C@H]4CCN(C(=O)c5nccs5)C4)C3)cc21 [Cpd 221]
[4] CN(C(=O)Cn1ccc2cc(C(=O)N3CC(N[C@H]4CCN(C(=O)c5nccs5)C4)C3)ccc21)c1ccccc1 [Cpd 222]
Query: Task for the reader: rank each entry by its pKd, from the minimum upward. Form entry: labels listed in requested order.
Result: 4, 1, 2, 3

[A] O=C(c1nccs1)N1CC[C@H](NC2CN(C(=O)c3ccc4c(ccn4-c4ccc(F)cc4)c3Cl)C2)C1 [Cpd 223]
[B] O=C(c1nccs1)N1CC[C@H](NC2CN(C(=O)c3cccc4c3CCN4c3ccc(F)cc3)C2)C1 [Cpd 216]
[C] Cn1cc(-c2cccc(F)c2)c2ccc(C(=O)N3CC(N[C@H]4CCN(C(=O)c5nccs5)C4)C3)cc21 [Cpd 205]
Query: Task field, ranking: reported pKd, descending order. Form entry: labels listed in requested order.
Result: C, A, B
(C: 7.67, A: 6.84, B: 6.34)

----------
Reported IC50 values, purified wild type MGL (wt-MGLL 6H-11-313) (Homo sapiens).
measured parameter: IC50 (nM)

[A] O=C(c1ccc2nc(-c3ccccc3)sc2c1)N1CC(N[C@H]2CCN(C(=O)c3ccccc3)C2)C1 [Cpd 157]
[B] O=C(c1ccc(-c2cccc(C(F)(F)F)c2)cc1)N1CC(N(O)[C@H]2CCN(C(=O)c3ccccc3)C2)C1 [Cpd 54]
Query: Which numeric IC50 is bigger, that of A or that of B ? Indicate your choice by writing its label.
Result: A

----------
Molecular target: purified wild type MGL (wt-MGLL 6H-11-313) (Homo sapiens, UniProt Q99685)
Sequence (Q99685 1-303): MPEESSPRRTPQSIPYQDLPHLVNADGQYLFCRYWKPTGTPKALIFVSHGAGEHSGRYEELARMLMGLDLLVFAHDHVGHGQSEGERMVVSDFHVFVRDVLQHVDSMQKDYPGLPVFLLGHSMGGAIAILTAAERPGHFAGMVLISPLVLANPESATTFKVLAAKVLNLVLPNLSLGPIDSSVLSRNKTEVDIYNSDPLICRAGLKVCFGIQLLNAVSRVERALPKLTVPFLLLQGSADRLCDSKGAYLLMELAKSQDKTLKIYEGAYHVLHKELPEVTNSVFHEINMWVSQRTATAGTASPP
measured parameter: IC50 (nM)

Answered cases to consult:
O=C(c1cscn1)N1CC[C@H](NC2CN(C(=O)c3cc4cc(Br)ccc4s3)C2)C1 :: 3100
Cn1nc(-c2cccc(F)c2)c2cc(C(=O)N3CC(N[C@H]4CCN(C(=O)c5nccs5)C4)C3)ccc21 :: 107
O=C(c1ccccc1)N1CC[C@H](NC2CN(C(=O)c3cc4cc(OC(F)(F)F)ccc4s3)C2)C1 :: 17.6
O=C(c1ccc(C(O)c2ccc(C(F)(F)F)cc2)cc1)N1CC(N[C@H]2CCN(C(=O)c3ccccc3)C2)C1 (stereo partly drawn) :: 9.7
O=C(c1ccc(-c2cccc(C(F)(F)F)c2)cc1)N1CC(N[C@H]2CCN(C(=O)c3ccccc3)C2)C1 :: 16.7
Cc1nc(-c2ccccc2F)sc1C(=O)N1CC(N[C@H]2CCN(C(=O)c3nccs3)C2)C1 :: 2930
Cn1cc(-c2ccc(F)cc2)c2ccc(C(=O)N3CC(N[C@H]4CCN(C(=O)c5cscn5)C4)C3)cc21 :: 19
Cc1ccc2c(C(F)(F)F)c(C(=O)N3CC(N[C@H]4CCN(C(=O)c5nccs5)C4)C3)sc2c1 :: 90.5

[I] Cc1nc(-c2cccc(Cl)c2)sc1C(=O)N1CC(N[C@H]2CCN(C(=O)c3nccs3)C2)C1
[II] O=C(c1ccccc1)N1CC[C@H](NC2CN(C(=O)c3sc4cc(F)ccc4c3Cl)C2)C1
Query: // task: argmin of IC50 over [ I , II ] Indicate your choice by writing its label.
Result: II

----------
target: mutant MGL (Homo sapiens, UniProt Q99685, L169S/L176S); construct: purified mutant MGL (mut-MGLL 11-313 L179S L186S); test: MGL ThermoFluor assay - mutant; conditions: qNMR-corrected compound concentration; read-out: MGL mutant ThermoFluor qKd
pKd: −log10 of the molar value.
measured parameter: pKd

O=C(c1nccs1)N1CC[C@H](NC2CN(C(=O)c3cn(-c4ccc(F)cc4)c4ccccc34)C2)C1 [Cpd 219] :: 5.30

[a] O=C(c1nccs1)N1CC[C@H](NC2CN(C(=O)c3cn(-c4cccc(F)c4)c4ccccc34)C2)C1 [Cpd 218]
[b] Cn1cc(-c2cccc(F)c2)c2ccc(C(=O)N3CC(N[C@H]4CCN(C(=O)c5ccccc5)C4)C3)cc21 [Cpd 207]
[c] Cc1cc2c(ccn2-c2ccc(F)cc2)cc1C(=O)N1CC(N[C@H]2CCN(C(=O)c3nccs3)C2)C1 [Cpd 224]
Query: Task field, ranking: reported pKd, descending order. Form entry: labels listed in requested order.
Result: b, c, a
(b: 7.00, c: 6.66, a: 5.46)

----------
target: purified mutant MGL (mut-MGLL 11-313 L179S L186S) (Homo sapiens, UniProt Q99685, L169S/L176S); construct: purified mutant MGL (mut-MGLL 11-313 L179S L186S); assay: MGL enzyme activity assay (4MU-B cleavage), mutant MGL; settings: mutant MGL 5 nM, 4MU-B 10 μM, 37° C.; read-out: MGL mutant inh IC50
measured parameter: IC50 (nM)

O=C(c1ccccc1)N1CC[C@H](NC2CN(C(=O)c3cc4cc(C(F)(F)F)ccc4s3)C2)C1 [Cpd 19] :: 361
O=C(c1ccc(Cc2ccccc2)cc1)N1CC(N[C@@H]2CCN(C(=O)c3ccccc3)C2)C1 [Cpd 7] :: 2060
O=C(c1ccc(-c2ccccc2)cc1)N1CC(NC2CN(C(=O)c3ccccc3)CC2F)C1 (centres unmarked) [Cpd 58] :: 33

[a] O=C(c1ccc2c(-c3ccccc3C(F)(F)F)cccc2c1)N1CC(N[C@H]2CCN(C(=O)c3ccccc3)C2)C1 [Cpd 24]
[b] COC1CN(C(=O)c2ccccc2)CC1NC1CN(C(=O)c2ccc(-c3cccc(C(F)(F)F)c3)cc2)C1 (centres unmarked) [Cpd 71]
[c] O=C(c1nccs1)N1CC[C@H](NC2CN(C(=O)N3CCc4cc(-c5ccccc5)ccc4C3)C2)C1 [Cpd 11]
Query: Task for the reader: rank each entry by its IC50, from the minimum upward. Form entry: labels listed in requested order.
Result: a, c, b
(a: 8.5 nM, c: 344 nM, b: 5580 nM)

[I] O=C(c1nccs1)N1CC[C@H](NC2CN(C(=O)N3Cc4ccc(Br)cc4C3)C2)C1 [Cpd 12]
[II] O=C(c1ccccc1)N1CC[C@H](NC2CN(C(=O)c3sc4cc(F)ccc4c3C3CC3)C2)C1 [Cpd 70]
Query: Which numeric IC50 is bigger, that of I or that of II ? Indicate your choice by writing its label.
Result: I
